Test: PhoP regulon inhibitors, Salmonella typhi PhoP promoter GFP reporter, confirmatory (AID 1850);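 also: 0% = induced wells with vehicle and 100% = uninduced wells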
Conditions: fluorescence, 4 h, at 50 µM, hits give high values
In all, about 310,000 compounds went through this assay and about 1,000 (0.32%) were called active. These entries were drawn from the full list. Measured potencies and affinities stand elsewhere.
metric_name: inhibition (%)
Give bare numbers, in %.

{"columns": ["compound", "quantitative_readout"],
 "data": [
  ["COc1cc(C(=O)O/N=C2/C=C(C)C(=O)C=C2C)cc(OC)c1OC", -6.02],
  ["CS(=O)(=O)c1ccc(Cl)c(NC(=O)COC(=O)/C=C/c2cnc3ccccc3n2)c1", 5.47],
  ["NC1=NC2(CCCC2)N=C(Nc2ccccc2)N1", 0.23],
  ["COc1ccc(OC)c(NC2=NC3(CCCCC3)N=C(N)N2)c1", -2.55]
]}

// next item, inhibition requested
Endpoint output: inhibition of O=C1C2C3C=CC(C3)C2C(=O)N1CCCCCCN1C(=O)C2C3C=CC(C3)C2C1=O (stereo not given) . Value?
7.17
